- method: Inhibition of alpha-glucosidase (unknown origin) using p-nitrophenyl glucopyranoside as substrate preincubated for 10 mins followed by substrate addition and measured after 30 mins by absorbance based analysis
- Parameters: species or system Homo sapiens
assay endpoint: IC50 (nM)
Your answer should be a plain number; it is taken to be in nM.

[
  {
    "compound": "C[C@H]1O[C@H](O[C@H]2[C@H](O)[C@@H](O)[C@@H](O[C@H]3[C@H](O)[C@@H](O)C(O)O[C@@H]3CO)O[C@@H]2CO)[C@H](O)[C@@H](O)[C@@H]1N[C@H]1C=C(CO)[C@@H](O)[C@H](O)[C@H]1O (stereo partly drawn)",
    "unit tag": "nM",
    "IC50": 1750
  },
  {
    "compound": "O=C(NNS(=O)(=O)c1cc(Cl)c(Cl)cc1Cl)c1ccc2[nH]cc(C(c3ccccc3)c3c[nH]c4ccc(C(=O)NNS(=O)(=O)c5cc(Cl)c(Cl)cc5Cl)cc34)c2c1",
    "unit tag": "nM",
    "IC50": 100
  }
]

Moving on to another compound below.
// FC(F)(F)c1cccc(-c2nnc(-c3c[nH]c4ncccc34)o2)c1 : IC50 value = 460

* * *

Some compounds, each annotated with its measured IC50.
- method: Inhibition of alpha-glucosidase (unknown origin)
- Design: species or system Homo sapiens
Your answer should be a plain number; it is taken to be in µM.

Use these answered entries as a reference point.
[
  {
    "molecule": "CN(C)c1ccc(-c2ccc(/C=N/n3c(COc4ccccc4)nnc3SCCO)cc2)cc1",
    "IC50 (µM)": 1.49
  },
  {
    "molecule": "Cc1cc([N+](=O)[O-])ccc1-c1cnc(CC(C)C)s1",
    "IC50 (µM)": 7.17
  }
]

// COc1ccc(-n2c(SCC(=O)N/N=C/c3ccc(O)cc3)nc3ccccc3c2=O)cc1 : IC50 value = 561

// Cn1cnnc1SC(=O)c1ccc(-c2ccccc2Cl)o1 : IC50 value = 2.2

// O=C(N/N=C/c1ccc(Cl)cc1)c1cc(-c2ccccc2)[nH]n1 : IC50 value = 60.5

* * *

- method: Inhibition of Saccharomyces cerevisiae alpha-glucosidase type I using p-nitrophenyl-alpha-D-glucopyranoside as substrate preincubated for 10 mins followed by substrate addition and measured after 30 mins by absorbance based analysis
assay endpoint: IC50 (µM)
Your answer should be a plain number; it is taken to be in µM.

// Cc1nn(-c2ccc(Nc3cccc(Cl)c3)nn2)c(C)c1[N+](=O)[O-] : IC50 value = 19.3

* * *

Some compounds, each annotated with its measured IC50.
- method: Inhibition of alpha-glucosidase (unknown origin) using p-nitro phenyl glucopyranoside as substrate preincubated for 15 mins followed by substrate addition and measured after 30 mins by absorbance based analysis
- Design: species or system Homo sapiens
Your answer should be a plain number; it is taken to be in µM.

[
  {
    "compound": "CCOC(=O)CN1C(=O)S/C(=C/c2ccc(-n3ccc4c(Br)ccnc43)cc2)C1=O",
    "assay value": 0.55
  }
]

// C[C@H]1O[C@H](O[C@H]2[C@H](O)[C@@H](O)[C@@H](O[C@H]3[C@H](O)[C@@H](O)C(O)O[C@@H]3CO)O[C@@H]2CO)[C@H](O)[C@@H](O)[C@@H]1N[C@H]1C=C(CO)[C@@H](O)[C@H](O)[C@H]1O (some centres not stated) : IC50 value = 40.9
